Reported IC50 values for a set of molecules
study.system: recombinant human LTA4 hydrolase (rhLTA4H) (Homo sapiens, UniProt P09960)
Construct: made in house; host or cells: Spodoptera frugiperda (Sf-9) cells, baculovirus (pFastBac1)
Sequence (P09960 1-611): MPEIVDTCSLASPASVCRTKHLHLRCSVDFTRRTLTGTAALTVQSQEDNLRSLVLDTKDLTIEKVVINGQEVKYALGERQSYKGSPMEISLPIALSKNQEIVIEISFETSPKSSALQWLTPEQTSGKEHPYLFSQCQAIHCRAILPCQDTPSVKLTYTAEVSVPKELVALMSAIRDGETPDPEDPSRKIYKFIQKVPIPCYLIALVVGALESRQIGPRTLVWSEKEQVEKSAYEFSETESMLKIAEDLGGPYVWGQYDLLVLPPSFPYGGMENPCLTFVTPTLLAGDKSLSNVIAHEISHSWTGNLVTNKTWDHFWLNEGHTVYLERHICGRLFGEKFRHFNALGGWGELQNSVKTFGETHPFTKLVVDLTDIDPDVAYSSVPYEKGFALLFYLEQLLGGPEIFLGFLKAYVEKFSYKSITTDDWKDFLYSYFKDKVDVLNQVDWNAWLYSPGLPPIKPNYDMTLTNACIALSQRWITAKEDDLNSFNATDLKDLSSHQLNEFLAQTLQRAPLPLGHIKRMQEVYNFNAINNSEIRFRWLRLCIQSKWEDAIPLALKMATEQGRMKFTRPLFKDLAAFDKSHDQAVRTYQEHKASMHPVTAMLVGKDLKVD
assay.text: Recombinant human LTA4 hydrolase assay for LTA4 hydrolase inhibitor activity
Assay type: biochemical
measurement.context: rhLTA4H, LTB4 by immunoassay; single determination or average of two or more; mark after value = form tested: ′ free base, ″ hydrochloride, ^ formate; read-out: IC50
Procedure: Assay 1: Recombinant Human LTA4 Hydrolase Assay for LTA4 Hydrolase Inhibitor Activity Compounds of the present invention were tested for LTA4 hydrolase inhibitor activity against recombinant human LTA4 hydrolase (rhLTA4H). Vectors were prepared and used to express rhLTA4H essentially as follows: LTA4 hydrolase encoding DNA was amplified by polymerase chain reaction (PCR) using a human placental cDNA library as a template. […]

| molecule | measurement.units | IC50 |
| --- | --- | --- |
| O=C(c1coc2cc(Oc3nc4ncccc4s3)ccc12)N1CCCCC1 | nM | 50 |
| O=C(c1coc2cc(Oc3nc4ncccc4s3)ccc12)N1CCC(c2ccccc2)CC1 | nM | 20 |
| CC(=O)N1C[C@@H]2C[C@H]1CN2Cc1coc2cc(Oc3nc4ncccc4s3)ccc12 | nM | 7 |
| OCC1CCN(Cc2c[nH]c3cc(Oc4nc5ccccc5s4)ccc23)CC1 | nM | 15 |
| CS(=O)(=O)N1C[C@@H]2CC[C@H]1CN2Cc1coc2cc(Oc3nc4ncccc4s3)ccc12 | nM | 4 |
| CCn1c(CN2CCCC2)cc2cc(Oc3nc4ccccc4s3)ccc21 | nM | 93 |
| O=c1[nH]ncn1C1CCN(Cc2coc3cc(Oc4nc5ncccc5s4)ccc23)CC1 | nM | 2 |
| c1ccc2sc(Oc3ccc4c(CN5CC6CNCC6C5)c[nH]c4c3)nc2c1 (centres unmarked) | nM | 45 |

Where do the numbers come from? From patent US8399465B2.
